Origin of values: patent US7964624B1

molecular target: HCV NS3 protease domain (Hepatitis C virus genotype 1b, UniProt Q9WMX2); construct: The first 181 amino acids of NS3 (residues 1027-1207 of the viral polyprotein); hexa-histidine (C); made in house; host or cells: E. coli BL21/DE3 pLysS; test: biochemical; conditions: read-out: Enzyme Assay 1 (HCV NS3 Protease Domain Peptide Cleavage Assay) activity; apparent Ki class
Sequence (Q9WMX2 1027-1207, other chains not shown): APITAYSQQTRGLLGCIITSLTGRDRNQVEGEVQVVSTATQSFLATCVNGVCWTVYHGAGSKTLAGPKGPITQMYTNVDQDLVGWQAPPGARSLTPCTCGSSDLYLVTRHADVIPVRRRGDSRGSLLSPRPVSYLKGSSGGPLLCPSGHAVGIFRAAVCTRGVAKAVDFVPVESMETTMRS
pKi: −log10 of the molar value.
measure: pKi

compound="CCC[C@H](NC(=O)[C@@H]1C[C@]2(CC(c3cccc(Cl)c3)=NO2)CN1C(=O)[C@@H](NC(=O)CC1CCC(C)(O)CC1)C(C)(C)C)C(=O)C(=O)NC1CC1 (stereo partly shown) [Compound 575]" measure=pKi obs_value="> 7.00"

====

biological target: HCV NS3 protease domain (Hepatitis C virus genotype 1b); construct: The first 181 amino acids of NS3 (residues 1027-1207 of the viral polyprotein); hexa-histidine (C); made in house; host or cells: E. coli BL21/DE3 pLysS; test: biochemical; conditions: Enzyme Assay 1 (HCV NS3 Protease Domain Peptide Cleavage Assay) activity, apparent Ki class
Form field: Ki (one value per entry).
measure: Ki

compound="CCC[C@H](NC(=O)[C@@H]1C[C@]2(CC(c3cc(C)cc(C)c3)=NO2)CN1C(=O)[C@@H](NC(=O)O[C@H]1CCOC1)C(C)(C)C)C(=O)C(=O)NC1CC1 [Compound 519]" system_name="HCV NS3 protease domain (Hepatitis C virus genotype 1b)" obs_value="100 to 500 nM"
compound="CCC[C@H](NC(=O)[C@@H]1C[C@]2(CC(c3cccc(Cl)c3)=NO2)CN1C(=O)[C@@H](NC(=O)Cc1cncc(Br)c1)C(C)(C)C)C(=O)C(=O)NC1CC1 [Compound 339]" system_name="HCV NS3 protease domain (Hepatitis C virus genotype 1b)" obs_value="100 to 500 nM"
compound="C=C[C@@H]1C[C@]1(NC(=O)[C@@H]1C[C@]2(CC(c3cccc(Cl)c3)=NO2)CN1C(=O)[C@@H](NC(=O)O[C@H]1CCOC1)C(C)(C)C)C(=O)O [Compound 269]" system_name="HCV NS3 protease domain (Hepatitis C virus genotype 1b)" obs_value="> 500 nM"
compound="CCC[C@H](NC(=O)[C@@H]1C[C@]2(CC(c3cccc(Cl)c3)=NO2)CN1C(=O)[C@@H](NC(=O)CC1CCCC1)C(C)(C)C)C(=O)C(=O)NC1CC1 [Compound 72]" system_name="HCV NS3 protease domain (Hepatitis C virus genotype 1b)" obs_value="100 to 500 nM"
compound="CCC[C@H](NC(=O)[C@@H]1C[C@]2(CC(c3cccc(Cl)c3)=NO2)CN1C(=O)[C@@H](NC(=O)OCC1CCOC1)C(C)(C)C)C(=O)C(=O)NC1CC1 (some centres unmarked) [Compound 152]" system_name="HCV NS3 protease domain (Hepatitis C virus genotype 1b)" obs_value="100 to 500 nM"
compound="CCC[C@H](NC(=O)[C@@H]1C[C@]2(CC(c3ccc4c(c3)OCO4)=NO2)CN1C(=O)[C@@H](NC(=O)CC1CCOCC1)C(C)(C)C)C(=O)C(=O)NC1CC1 [Compound 82]" system_name="HCV NS3 protease domain (Hepatitis C virus genotype 1b)" obs_value="100 to 500 nM"
compound="C=C[C@@H]1C[C@]1(NC(=O)[C@@H]1C[C@]2(CC(c3cccc(Cl)c3)=NO2)CN1C(=O)[C@@H](NC(=O)CC1CCCCC1)C(C)(C)C)C(=O)O [Compound 144]" system_name="HCV NS3 protease domain (Hepatitis C virus genotype 1b)" obs_value="> 500 nM"
compound="CCC[C@H](NC(=O)[C@@H]1C[C@]2(CC(c3cccc(Cl)c3)=NO2)CN1C(=O)[C@@H](NC(=O)CC1CCCCC1)C(C)(C)C)C(=O)C(=O)N1CCCC1 [Compound 496]" system_name="HCV NS3 protease domain (Hepatitis C virus genotype 1b)" obs_value="> 500 nM"
compound="CCC[C@H](NC(=O)[C@@H]1C[C@]2(CC(c3ccccc3Cl)=NO2)CN1C(=O)[C@@H](NC(=O)OCc1ccccc1)C(C)(C)C)C(=O)C(=O)NC1CC1 [Compound 164]" system_name="HCV NS3 protease domain (Hepatitis C virus genotype 1b)" obs_value="> 500 nM"
compound="CCC[C@H](NC(=O)[C@@H]1C[C@]2(CC(c3cccc(Cl)c3)=NO2)CN1C(=O)[C@@H](NC(=O)C(C)Cn1cnc2ccccc21)C(C)(C)C)C(=O)C(=O)NC1CC1 (some centres unmarked) [Compound 544]" system_name="HCV NS3 protease domain (Hepatitis C virus genotype 1b)" obs_value="100 to 500 nM"
compound="CCC[C@H](NC(=O)[C@@H]1C[C@]2(CC(c3cccc(Cl)c3)=NO2)CN1C(=O)[C@@H](NC(=O)N[C@@H](C)c1ccccc1)C(C)(C)C)C(=O)C(=O)NC1CC1 [Compound 333]" system_name="HCV NS3 protease domain (Hepatitis C virus genotype 1b)" obs_value="100 to 500 nM"
